# Tested on: HCC-2998 colon
# TEST: NCI tumour cell line growth inhibition, 48 h
// reported GI50 per item

[
  {
    "SMILES_STRING": "Cc1cc(C)c([O-])c(CN(C)CCN(C)Cc2cc(C)cc(C)c2[O-])c1.O=C([O-])c1cccc(C(=O)[O-])n1.[Ti+4]",
    "GI50": "2.98 µM"
  },
  {
    "SMILES_STRING": "COc1cc(/C=C/C(=O)CC(=O)/C=C/c2cc(OC)c(OC)c(OC)c2)cc(OC)c1OC",
    "GI50": "15.9 µM"
  },
  {
    "SMILES_STRING": "COc1ccc(CN(C)c2ccc(CO)c(Cl)c2)cc1",
    "GI50": "13.7 µM"
  },
  {
    "SMILES_STRING": "CCOC(=O)C(Cc1c[nH]c2ccc(N)cc12)(NC(C)=O)C(=O)OCC",
    "GI50": "> 1000 µM"
  },
  {
    "SMILES_STRING": "O=C1Nc2ccc(C(=O)c3ccco3)cc2/C1=C/c1cc(Cl)c(O)c(Cl)c1",
    "GI50": "6.07 µM"
  },
  {
    "SMILES_STRING": "Nc1c(C(=O)c2ccc(Cl)cc2)sc(Nc2ccccc2)c1-c1nc2ccccc2s1",
    "GI50": "> 100 µM"
  },
  {
    "SMILES_STRING": "Cc1ccccc1NC(=O)N/C(N)=N/c1nc(-c2cccc([N+](=O)[O-])c2)cs1",
    "GI50": "3.16 µM"
  },
  {
    "SMILES_STRING": "CC(=O)N[C@H]1C=C[C@@H]2/C=C(C)/C=C/[C@@H](C)[C@H]([C@H](C)[C@H](O)[C@@H](C)NC(C)=O)OC(=O)/C=C/C=C(C)\\C=C\\[C@]2(C)C1",
    "GI50": "5.04 µM"
  },
  {
    "SMILES_STRING": "COc1cc(C(=O)/C(C)=C/c2c[nH]c3ccccc23)cc(OC)c1OC",
    "GI50": "0.0043 µM"
  },
  {
    "SMILES_STRING": "CC(=O)[O-].CC(=O)[O-].[Pt+2].c1cscn1.c1cscn1",
    "GI50": "> 100 µM"
  }
]

These data points were gathered from PubChem BioAssay (NCI).
